- System: A673/TR/shEF
- procedure_text: cell viability (LOESS-normalised, relative to median of negative controls) (log2 ratio); higher = more viable cells (less compound effect), active = hit call of the paper (over 3 MAD below the median)
- stated_conditions: 0.25 µM; library screen: screen1; EWS-FLI1 expression: high (no doxycycline); treatment time: 72 h
Out of some 3,200 compounds screened, about 300 (9.4%) showed activity. The sample holds actives, similar compounds and a random draw of the others, so the mix is not that of the screen.
Labelling field: enter rule met if recorded cell viability (log2) is less than 0.08. Enter rule not met if it equals or exceeds that cut-off.

INSERT INTO measurements (molecule, target_system, discrete_label) VALUES
  ('CCOC(=O)NC1=C(N2CC2)C(=O)C(NC(=O)OCC)=C(N2CC2)C1=O', 'A673/TR/shEF', 'rule not met'),
  ('Cc1c(N)nc([C@H](CC(N)=O)NC[C@H](N)C(N)=O)nc1C(=O)N[C@H](C(=O)N[C@H](C)[C@@H](O)[C@H](C)C(=O)N[C@H](C(=O)NCCc1nc(-c2nc(C(=O)NCCC[S+](C)C)cs2)cs1)[C@@H](C)O)[C@@H](OC1OC(CO)C(O)C(O)C1OC1OC(CO)C(O)C(OC(N)=O)C1O)c1cnc[nH]1 (stereo partly drawn)', 'A673/TR/shEF', 'rule not met'),
  ('CC(=O)O[C@@H]1C[C@H]2C(C)(C)C(=O)C=C[C@]2(C)[C@H]2CC[C@]3(C)C(=CC(=O)O[C@H]3c3ccoc3)[C@@]21C', 'A673/TR/shEF', 'rule met'),
  ('COc1cccc(CN2CCN(Cc3cccc(F)c3)CC2)c1', 'A673/TR/shEF', 'rule met'),
  ('COc1cc2c(cc1-c1cc3cc4ccoc4cc3oc1=O)OCO2', 'A673/TR/shEF', 'rule met'),
  ('CC(N)C(O)c1ccc(O)c(O)c1 (stereo not drawn)', 'A673/TR/shEF', 'rule not met'),
  ('O=C1c2ccccc2C(=O)c2ccccc21', 'A673/TR/shEF', 'rule met');

* * *

- Test system: A673/TR/shEF
- procedure_text: cell viability (LOESS-normalised, relative to median of negative controls) (log2 ratio); higher = more viable cells (less compound effect), active = hit call of the paper (over 3 MAD below the median)
- stated_conditions: 0.25 µM; library screen: screen1; EWS-FLI1 expression: low (doxycycline-induced shRNA knockdown); treatment time: 72 h
Hit rate of the full screen: of about 3,200 compounds, about 300 (9.4%) showed activity. The full list was thinned out, with actives kept by preference.
Each record is given Condition met if its reported cell viability (log2) is strictly below 0.04. Records at or above 0.04 are given Condition not met.

INSERT INTO measurements (compound, discrete_label) VALUES
  ('CCC(C)C(OC(C)=O)C(=O)O[C@H]1[C@H](O)C2[C@@]3(C)C=CC(=O)C(C)(C)C3C[C@@H](OC(=O)C(O)C(C)C)[C@@]2(C)[C@@]23O[C@@H]2C[C@@H](c2ccoc2)[C@]13C (stereo not given in full)', 'Condition not met'),
  ('O=C1C(Cl)=C(Cl)C(=O)C(Cl)=C1Cl', 'Condition met'),
  ('CN1[C@H]2CC(OC(=O)C(CO)c3ccccc3)C[C@H]1[C@H]1O[C@H]12 (stereo not given in full)', 'Condition met'),
  ('C[C@]12CC[C@H](O)C[C@@H]1CC[C@@H]1[C@@H]2CC[C@]2(C)C(=O)CC[C@@H]12', 'Condition not met'),
  ('O=P1(N(CCCl)CCCl)NCCCO1 (stereo not given)', 'Condition not met'),
  ('C[C@]12CC[C@H](O)CC1=CC[C@@H]1[C@@H]2CC[C@]2(C)C(=O)CC[C@@H]12', 'Condition not met'),
  ('COC[C@H]1OC(=O)c2coc3c2[C@@]1(C)C1=C(C3=O)[C@@H]2CCC(=O)[C@@]2(C)C[C@H]1OC(C)=O', 'Condition met'),
  ('C[C@]12CC[C@H](O)C[C@@H]1CC[C@@H]1[C@@H]2CC[C@]2(C)[C@@H](O)CC[C@@H]12', 'Condition met'),
  ('C/C=C(/C)C(=O)O[C@H]1CC[C@@]2(C)[C@@H]3CC[C@H]4[C@]5(O)C[C@H](O)[C@@]6(O)[C@@H](CN7C[C@@H](C)CC[C@H]7[C@@]6(C)O)[C@]5(O)C[C@@]42O[C@]13O', 'Condition met'),
  ('CC[C@@H](C)C(=O)O[C@H]1[C@H](O)[C@H]2[C@@H](CN3C[C@@H](C)CC[C@H]3[C@@]2(C)O)[C@@H]2C[C@]34O[C@]5(O)[C@@H](OC(=O)[C@@](C)(O)[C@@H](C)O)CC[C@@]3(C)[C@@H]5[C@@H](OC(C)=O)[C@@H](OC(C)=O)[C@H]4[C@@]21O', 'Condition met'),
  ('CC(C)N(C(=O)CCl)c1ccccc1', 'Condition not met'),
  ('CCC1C2CC3[C@@H]4N(C)c5ccccc5[C@]45CC(C2[C@H]5O)N3[C@@H]1O (stereo not given in full)', 'Condition met'),
  ('CN[C@@H]1C[C@H]2O[C@@](C)([C@@H]1OC)n1c3ccccc3c3c4c(c5c6ccccc6n2c5c31)C(=O)NC4', 'Condition met'),
  ('C[C@]12CC[C@H](O)C[C@H]1CC[C@@H]1[C@@H]2C[C@@H](O)[C@]2(C)[C@@H](C3=CC(=O)OC3)CC[C@]12O', 'Condition met'),
  ('COc1c2c(cc3c1OCO3)[C@]13C=C[C@H](OC)C[C@H]1N(C2)CC3O (stereo not given in full)', 'Condition not met');

* * *

- System: A673/TR/shEF
- procedure_text: cell viability (LOESS-normalised, relative to median of negative controls) (log2 ratio); higher = more viable cells (less compound effect), active = hit call of the paper (over 3 MAD below the median)
- stated_conditions: 0.25 µM; library screen: screen2; EWS-FLI1 expression: high (no doxycycline); treatment time: 72 h
In all, about 3,200 compounds went through this assay and about 300 (9.4%) showed activity. The full list was thinned out, with actives kept by preference.
Strictly below 0.1 in cell viability (log2): t. Otherwise: f.

INSERT INTO results (compound, discrete_label) VALUES
  ('O=C[C@H](Cl)[C@@H](O)[C@H](O)[C@H](O)CO', 'f'),
  ('CN1CC[C@@]23CCCC[C@@H]2[C@@H]1Cc1ccc(O)cc13', 'f'),
  ('COc1cc([C@@H]2c3cc4c(cc3[C@H](O)[C@H]3COC(=O)[C@H]23)OCO4)cc(OC)c1OC', 't'),
  ('CCCCCCCCCCCCCC(=O)O[C@@H]1[C@@H](C)[C@@]2(O)[C@@H](C=C(CO)C[C@]3(O)C(=O)C(C)=C[C@@H]23)[C@@H]2C(C)(C)[C@]12OC(C)=O', 't'),
  ('CC(Cc1ccc(O)cc1)NCC(O)c1cc(O)cc(O)c1 (configuration not stated)', 'f'),
  ('COc1ccc2c(c1O)-c1c3c(cc4c1[C@H](C2)N(C)CC4)OCO3', 'f'),
  ('CC(C)[C@H]1CN[C@H](C(=O)O)[C@H]1CC(=O)O', 't'),
  ('COc1ccc2c(c[n+](C)c3c4cc5c(cc4ccc23)OCO5)c1OC', 'f'),
  ('CC1C2Cc3ccc(O)cc3C1(C)CCN2CC1CC1 (configuration not stated)', 'f'),
  ('CC(C)Oc1cccnc1N(C)C1CCN(Cc2ccc(I)cc2)CC1', 't'),
  ('C[C@]12CCC3C(CC[C@H]4C[C@H](O)CC[C@]34C)C1CC[C@@H]2C(=O)CO (some centres not stated)', 'f'),
  ('CN[C@@H]1C[C@@H](c2ccc(Cl)c(Cl)c2)c2ccccc21', 't'),
  ('COc1ccc2c(c1OC)C(=O)O[C@H]2[C@@H]1c2cc3c(cc2CCN1C)OCO3', 't'),
  ('CC1=C[C@@H]2c3cccc4[nH]cc(c34)C[C@H]2N(C)C1', 'f'),
  ('Ic1ccccc1CN[C@H]1C2CCN(CC2)[C@H]1C(c1ccccc1)c1ccccc1', 'f'),
  ('CCCC(C)(COC(N)=O)COC(=O)NC(C)C (configuration not stated)', 'f'),
  ('NCCc1ccc(O)cc1', 'f'),
  ('O=P1(N(CCCl)CCCl)NCCCO1 (configuration not stated)', 'f'),
  ('COc1cc(CCN)ccc1O', 'f'),
  ('CC(O)C(C)OC(=O)[C@@H]1C[C@@H]2c3cccc4c3c(cn4C(C)C)C[C@H]2N(C)C1 (some centres not stated)', 'f'),
  ('CN[C@@H](C)[C@H](O)c1ccccc1', 'f'),
  ('NC(Cc1cc(O)c(O)cc1O)C(=O)O (configuration not stated)', 't');
